molecular target: Cytochrome P450 3A4 (Homo sapiens); assay: qHTS Assay for Inhibitors and Substrates of Cytochrome P450 3A4 (AID 884); settings: recombinant CYP3A4, Luciferin-PPXE luminescence; series mostly up to 57.1 µM; also: nearly all actives have a fitted effect of over 50% in size
Results filed as inconclusive are left out. The source made the active and inactive calls. Calls follow the shape of the dose curve; as a rule, active = well fitted inhibition curve with a large enough effect; inconclusive = small, poorly fitted or top-dose-only effect; inactive = no such curve, though single readings can be large or run the other way.
One label from this list, please: active, inactive

Query string: Dear all, I need the recorded test outcome for `CN1CC(=O)N=C1N` , thank you.
Result string: inactive

Query string: Tell me the recorded outcome of this test for CSc1ncnc2c1ncn2C1OC(CO)C(O)C1O (centres undefined) .
Result string: inactive

Query string: Record lookup: outcome of this test for C=C1C(C2(C)C=CC(=O)C(C)(C)C2CC(=O)OC)CC[C@@]2(C)C(c3ccoc3)OC(=O)C3OC132 (some centres undefined) ?
Result string: active

Query string: Name the outcome recorded for COC(=O)CC1C2(C)CC34OC5(C)O[C@@]6(C7/C(=C(/O)C(C)C)C(=O)OC(c8ccoc8)[C@]7(C)C(OC(C)=O)C(OC(C)=O)[C@]6(O5)[C@@]13C)C(OC(C)=O)[C@]4(O)C2OC(=O)C(C)C (some centres undefined) in the assay.
Result string: active

Query string: What classification did `COc1ccc(-c2coc3cc(O)ccc3c2=O)c(O)c1O` end up with in this test?
Result string: inactive

Query string: Please share the test call associated with `COc1cc2ccc(=O)oc2c(O)c1O` .
Result string: inactive

Query string: Any idea what this test logged for CC1CC[C@@]2(OC1)OC1CC3C4CC=C5CC(O)CC[C@@]5(C)C4CC[C@]3(C)C1C2C (some centres undefined) ?
Result string: inactive

Query string: Name the outcome recorded for O=c1ccn(C2OC(COP(=O)(O)OP(=O)(O)OP(=O)(O)O)C(O)C2O)c(=O)[nH]1 (centres undefined) in the assay.
Result string: inactive

Query string: Outcome logged for OCC1OC(n2cnc3c(NCc4ccco4)ncnc32)C(O)C1O (centres undefined) in this assay:
Result string: inactive

###

tested on: CP238; assay: qHTS profiling for inhibitors of Plasmodium falciparum proliferation (AID 504749); also: nearly all actives have a fitted effect of over 60% in size; settings: P. falciparum in erythrocytes, SYBR Green DNA, 72 h; series mostly up to 12.8 µM
Inconclusive results are not listed. Calls of active or inactive are those of the source. Calls follow the shape of the dose curve; as a rule, active = well fitted inhibition curve with a large enough effect; inconclusive = small, poorly fitted or top-dose-only effect; inactive = flat fitted curve, though single readings scatter.
Hi there, use one of these labels in your reply, thanks! yes (1) for active, no (0) for inactive

Example cases with answers are listed next.
INSERT INTO measurements (compound, group) VALUES
  ('COc1c(O[C@H]2O[C@@H](CO)[C@@H](O)[C@@H](O)[C@@H]2O)cc2c(c1OC)-c1ccc(SC)c(=O)cc1[C@H](NC(C)=O)CC2', 'no (0)'),
  ('COCC(=O)Nc1c(I)c(C(=O)NC[C@@H](O)CO)c(I)c(C(=O)N(C)C[C@@H](O)CO)c1I', 'no (0)'),
  ('NC(=O)N[C@H]1NC(=O)NC1=O', 'no (0)'),
  ('COc1ccc2cc(C(C)CO)ccc2c1 (configuration not stated)', 'no (0)'),
  ('CCC(C)C(=O)OC1CC(O)C=C2C=CC(C)C(CCC(O)CC(O)CC(=O)O)C21 (configuration not stated)', 'no (0)');

Query string: Hi team, can someone confirm the assay call for CN(C)CCc1c[nH]c2ccc(CC3COC(=O)N3)cc12 (configuration not stated) ?
Result string: no (0)

Query string: Field: outcome | Entry: N[C@@H]1C(O)OC(CO)C(O)C1O (some centres not stated)
Result string: no (0)

Query string: How did this test come out for `c1ccc2c(c1)CCC[C@@H]2C1=NCCN1` ?
Result string: no (0)

Query string: Just curious, what result did `NC(=O)c1ccc[n+]([C@@H]2O[C@H](COP(=O)([O-])OP(=O)(O)OC[C@H]3O[C@@H](n4cnc5c(N)ncnc54)[C@@H](O)[C@@H]3O)[C@@H](O)[C@@H]2O)c1` get here?
Result string: no (0)

Query string: Could you check what this test reported for `CN1CCC[C@@H](CC2c3ccccc3Sc3ccccc32)C1` ?
Result string: no (0)

Query string: Called result for `CC1=C(C(=O)O)N2C(=O)[C@@H](NC(=O)[C@@H](N)c3ccc(O)cc3)[C@@H]2SC1`
Result string: no (0)

Query string: Could you please tell me the result logged for `COC(=O)N/N=C/C1=C[N+](=O)c2ccccc2[N+]1=O` in this assay?
Result string: no (0)

Query string: Returns: the outcome recorded for C[C@]12C=CC(=O)C=C1CCC1C2C(O)C[C@]2(C)C1CC[C@]2(O)C(=O)CO (some centres not stated) in this assay.
Result string: no (0)

Query string: Which outcome did this test record for the compound `CC[C@H](Cc1c(I)cc(I)c(N)c1I)C(=O)O` ?
Result string: no (0)

Query string: # lookup: test call for CC(C)=CCC[C@](C)(O)C1CC=C(C)CC1 (some centres not stated)
Result string: no (0)

Query string: Please let me know the test result on file for `CC(=O)OCC(=O)[C@@]1(O)CC[C@@H]2[C@H]3CCC4=CC(=O)C=C[C@]4(C)[C@]3(F)[C@@H](O)C[C@@]21C` .
Result string: no (0)

Query string: Entry `COc1ccc([C@@H]2CC(=O)c3c(O)cc(O[C@H]4O[C@@H](CO[C@H]5O[C@@H](C)[C@@H](O)[C@@H](O)[C@@H]5O)[C@@H](O)[C@@H](O)[C@@H]4O)cc3O2)cc1O` : call = ?
Result string: no (0)

Query string: Status in this test for `CC(=O)[C@@]1(O)CC[C@H]2[C@H]3C[C@@H](C)C4=CC(=O)C=C[C@]4(C)[C@@]3(F)[C@@H](O)C[C@]21C` ?
Result string: no (0)

Query string: How was CNC1C(OC2C(O[C@@H]3C(O)C(O)[C@@H](N=C(N)N)C(O)C3N=C(N)N)OC(C)[C@@]2(O)CO)OC(CO)C(O)C1O (some centres not stated) classified in this test?
Result string: no (0)

Query string: Dear all, I need the recorded test outcome for `CS(=O)(=O)c1ccc([C@H](O)[C@H](CO)NC(=O)C(Cl)Cl)cc1` , thank you.
Result string: no (0)

Query string: Test call, this compound: `CCCCCCCCCc1ccc(OCCOCCOCCOCCOCCOCCOCCOCCOCCO)cc1`
Result string: no (0)

Query string: Can you look up the reported call for C[C@@H]1Cc2ccccc2N1NC(=O)c1ccc(Cl)c(S(N)=O)c1 (some centres not stated) for me?
Result string: no (0)

Query string: Any idea what this test logged for `Cc1ccc(S(=O)(=O)NC(=O)NN2C[C@H]3CCC[C@@H]3C2)cc1` ?
Result string: no (0)

Query string: How was `CN(C)CCOC(=O)[C@@H](c1ccccc1)C1(O)CCCC1` classified in this test?
Result string: no (0)

Query string: Hey, what did the test say about CC(=O)[C@]1(O)CCC2C3C=C(Cl)C4=CC(=O)C5CC5[C@@]4(C)C3CC[C@]21C (some centres not stated) ?
Result string: no (0)

Query string: Status in this test for `O=C(N/N=C\c1ccc([N+](=O)[O-])o1)c1ccc(O)cc1` ?
Result string: yes (1)
